// reported GI50 for each item listed
- Test system: SN40R2
- TEST DESCRIPTION: Growth inhibitory activity, SN40R2
- CONDITION NOTES: read-out: GI50 SN40R2
The answer is to be given in µM; state only the numeric part.

Observe how each entry below is paired with its result.
COMPOUND	RESULT UNITS	READOUT VALUE
O=C1NC(=S)NC(=O)C1=Cc1cc(-c2ccccc2)n(-c2ccc(Cl)cc2)c1-c1ccccc1 [Compound 4c]	µM	2.8
O=C1NC(=S)NC(=O)C1=Cc1cc(-c2ccccc2)n(-c2ccc([N+](=O)[O-])cc2)c1-c1ccccc1 [Compound 4t]	µM	5.2
N#Cc1ccc(-n2c(-c3ccccc3)cc(C=C3C(=O)NC(=S)NC3=O)c2-c2ccccc2)cc1 [Compound 4r]	µM	5.9

For the next question, use this compound.
# input What measured GI50 goes with CN1C(=O)C(=Cc2cc(-c3ccccc3)n(-c3ccc(Cl)cc3)c2-c2ccccc2)C(=O)NC1=S [Compound 4x] ?
# output 6.3
